test system: IA-LM; assay: relative viability (nuclei count vs DMSO), 5 days (fraction); higher = more cells survive; settings: first compound 0.08 µM
readout kind: relative viability
Provide a numeric answer; units are not to be included.

Lab note: O=c1[nH]c2ccccc2n1C1CCN(CCCC(c2ccc(F)cc2)c2ccc(F)cc2)CC1 [Pimozide] + CC1(C)CCC(c2ccc(Cl)cc2)=C(CN2CCN(c3ccc(C(=O)NS(=O)(=O)c4ccc(N[C@H](CCN5CCOCC5)CSc5ccccc5)c(S(=O)(=O)C(F)(F)F)c4)cc3)CC2)C1 [Navitoclax] (partner 0.5 µM) gave relative viability of 0.686

Recorded relative viability (compound O=c1[nH]c2ccccc2n1C1CCN(CCCC(c2ccc(F)cc2)c2ccc(F)cc2)CC1 [Pimozide] + Cc1nc(NC(=O)N2CCC[C@H]2C(N)=O)sc1-c1ccnc(C(C)(C)C(F)(F)F)c1 [Alpelisib] (partner 2 µM) ): 0.695

// relative viability lookup, compound = Cc1cnc(-c2cnc(NCCNc3ccc(C#N)cn3)nc2-c2ccc(Cl)cc2Cl)[nH]1 + C[C@]1(O)C[C@@H](c2nc(-c3ccc4ccc(-c5ccccc5)nc4c3)c3c(N)nccn32)C1 [Linsitinib] (partner 1 µM) , result: 0.604

Record O=c1[nH]c2ccccc2n1C1CCN(CCCC(c2ccc(F)cc2)c2ccc(F)cc2)CC1 [Pimozide] + O=C(c1cc(Cc2n[nH]c(=O)c3ccccc23)ccc1F)N1CCN(C(=O)C2CC2)CC1 [Olaparib] (partner 8 µM) . Reported relative viability: 0.84
